TGI overview
Test system: RXF 393 renal
METHOD: NCI tumour cell line growth inhibition, 48 h
Could you give me the number in µM? Just the number is fine.

Some solved entries appear below for comparison.
{"columns": ["COMPOUND", "TGI / µM"],
 "data": [
  ["Nc1nc(/C=C\\c2ccc([N+](=O)[O-])s2)nc(N2CCCC2)n1", 21.1],
  ["Nc1nc(N)c2c3c(cnc2n1)CC(c1ccccc1)CC3 (stereo unspecified)", 47.9],
  ["CN(C)CCC(=O)c1ccccc1", 61.6],
  ["O=[N+]([O-])/C(C(Cl)=C(Cl)Cl)=C(/Cl)Sc1ccccc1", 9.86],
  ["[Cl][Hg][c]1cc[c]([Hg][Cl])o1", 2.92]
]}

Entry under test: `COc1ccc(S(=O)(=O)c2nnc(S(=O)(=O)Cc3ccccc3)s2)cc1` . Its TGI was 31.2

Entry under test: `O=C(N[C@@H](c1ccc(Cl)c(Cl)c1)C1CNC1)c1ccc2cnccc2c1` . Its TGI was 0.191

Entry under test: `Cc1cc2oc(=N)c(C#N)c(C)c2cc1C` . Its TGI was 87.3

Entry under test: `COc1cc2c(C)cc(O)cc2c2cc(O)c(C)cc12` . Its TGI was 22.9

Entry under test: `C=CCCCCOc1ccccc1-c1cnc(OCCCCC=C)n1C` . Its TGI was 18.2

Entry under test: `Cn1cc(C2=C(c3cn(CCCCO)c4ccccc34)C(=O)NC2=O)c2ccccc21` . Its TGI was 10.8

Entry under test: `CN1C2CCC1CC(=CCOC(c1ccc(F)cc1)c1ccc(F)cc1)C2` . Its TGI was 28.2

Entry under test: `CC[C@H]1[C@@H]2C=C[C@@H]3[C@H]4C/C=C\C(=O)NCCC[C@@H]5NC(=O)/C(=C(O)/C=C/[C@@H]4C[C@@H]3[C@H]2C[C@H]1C)C5=O` . Its TGI was 0.84

Entry under test: C#C[C@]1(O)CCC2C3CCc4cc(O)ccc4C3CC[C@@]21C (stereo partly specified) . Its TGI was 17.7

Entry under test: `O=C1C(c2c(O)[nH]c3ccc(F)cc23)=Nc2ccccc21` . Its TGI was 9.77

Entry under test: OC1C#CCSCC#C/C=C\1 (stereo unspecified) . Its TGI was 68.1

Entry under test: `O=c1[nH]nc(Cc2ccccc2)n1/N=C/c1ccccc1O` . Its TGI was 53.5

====

System: MOLT-4 leukemia
METHOD: NCI tumour cell line growth inhibition, 48 h
READOUT: TGI

{"columns": ["COMPOUND", "TARGET OF ASSAY", "READOUT", "REPORTED"],
 "data": [
  ["CC(=O)OC12C=CC(=O)N1c1ccccc1C(=O)O2 (configuration not stated)", "MOLT-4 leukemia", "TGI", "> 100 µM"],
  ["COc1ccc(-[n+]2nc(S(=O)(=O)O)c(/C=C/c3ccc(N(C)C)cc3)cc2C#N)cc1", "MOLT-4 leukemia", "TGI", "> 100 µM"],
  ["CCN1CCC(O)(c2ccc(OC)cc2)C(C(=O)c2ccc(OC)cc2)C1 (configuration not stated)", "MOLT-4 leukemia", "TGI", "> 100 µM"],
  ["CO/N=C(\\COc1ccc2c(c1)oc(=O)c1cc(OC)ccc12)c1ccc(OC)cc1", "MOLT-4 leukemia", "TGI", "> 100 µM"],
  ["CCOC(=O)CN1C(=O)c2ccc(NC(=O)C(=O)O)cc2S1(=O)=O", "MOLT-4 leukemia", "TGI", "> 100 µM"],
  ["CN(C)CCCN1CCC2(CCC(C(C)(C)C)CC2)CC1", "MOLT-4 leukemia", "TGI", "5.74 µM"]
]}

Entry under test: N#CC(C(=O)C(=O)C(C#N)c1ccc(Br)cc1)c1ccc(Br)cc1 (configuration not stated) . Its TGI was 47.1 µM

====

System: SF-539 CNS
METHOD: NCI tumour cell line growth inhibition, 48 h; in the data active = GI50 below about 0.43 µM; inactive = the rest
Can you answer with just one of these options? active, inactive

{"columns": ["COMPOUND", "TARGET OF ASSAY", "GROUP LABEL"],
 "data": [
  ["C=C(C)[C@@H]1CC[C@]2(C)[C@H](CC=C3[C@@H]4CC(C)(C)CC[C@]4(C(N)=O)CC[C@]32C)[C@@]1(C)CCC#N", "SF-539 CNS", "inactive"],
  ["COc1cc(Cn2c(-c3ccccc3)c(Cl)c3c2-c2oncc2CC3)cc(OC)c1", "SF-539 CNS", "inactive"]
]}

Prompt line: Outcome? `COc1cc2c3c(n(C)c(=O)c2cc1OC)-c1cc2c(cc1/C3=C\CN)OCO2`
Response line: active

Prompt line: Outcome? `C=C(C)[C@@H]1CC[C@]2(C(=O)NC3CCCCC3)CC[C@]3(C)[C@H](CC[C@@H]4[C@@]5(C)CCCNC(C)(C)[C@@H]5CC[C@]43C)[C@@H]12`
Response line: inactive

Prompt line: Outcome? `Cc1ccc(NC(=O)CC2CC2)cc1-c1ccc(C(=O)NCC2CC2)cc1`
Response line: inactive

Prompt line: Outcome? `COc1cc(-c2cc(-c3cc4c([nH]c5ccccc54)c(-c4cc(OC)c(OC)c(OC)c4)n3)cc(-c3ccccc3)n2)cc(OC)c1OC`
Response line: inactive

Prompt line: Outcome? `Cc1nn(-c2ccc(Cl)cc2)c2nc3c(nc12)C(=O)c1ccccc1-3`
Response line: inactive

Prompt line: Outcome? `COc1ccc2c(c1)C(=O)c1c-2c(N2CCN(C(=O)CNCCNCCO)CC2)nc2ccccc12`
Response line: inactive

Prompt line: Outcome? `CCOC(=O)Nc1ccc(-c2nc(-c3cccc(OCCN4CCOCC4)c3)c(-c3ccnc(Br)c3)[nH]2)cc1`
Response line: inactive

Prompt line: Outcome? `C=CCCCCOc1ccccc1-c1cnc(OCCCCC=C)n1C`
Response line: inactive

Prompt line: Outcome? `Cn1cc(-c2csc(-c3c[nH]c4ccc(F)cc34)n2)c2cnccc21`
Response line: inactive

Prompt line: Outcome? `CC[C@H]1[C@@H]2C=C[C@@H]3[C@H]4C/C=C\C(=O)NCCC[C@@H]5NC(=O)/C(=C(O)/C=C/[C@@H]4C[C@@H]3[C@H]2C[C@H]1C)C5=O`
Response line: inactive

Prompt line: Outcome? `O=C(CSc1nc2ccccc2nc1-c1ccccc1)Nc1ccc(F)cc1`
Response line: inactive

Prompt line: Outcome? CCC(/C=C/C1OC(=O)C=CC1C)=C\C(C)C/C=C/C(C)=C/C(C)C(=O)C(C)C(O)C(C)C/C(C)=C/C(=O)O (stereo not given)
Response line: active

Prompt line: Outcome? `CC(C)Oc1ccc2cc(-c3nn(CC4CCNCC4)c4ncnc(N)c34)ccc2c1`
Response line: inactive

====

Tested on: DU-145 prostate
METHOD: NCI tumour cell line growth inhibition, 48 h
READOUT: TGI

{"columns": ["COMPOUND", "REPORTED"],
 "data": [
  ["C/C=C(/C)C(=O)O[C@@H]1CCN2CC[C@H](COC(=O)/C(=C/C)CO)C12 (stereo not given in full)", "> 100 µM"],
  ["COC(=O)C1=C(C(=O)NNc2ccccc2)N(c2cccnc2Cl)C(c2ccccc2)=CC1c1ccccc1 (stereo not given)", "> 100 µM"],
  ["COC(=O)c1ccccc1/C=C1\\Cc2ccc(C)c(C)c2C1=O", "> 100 µM"]
]}

Entry under test: `Cc1[nH]nc(C(F)(F)F)c1N=NN1CCOCC1` . Its TGI was 13.4 µM

Entry under test: `NC(=O)C(C(N)=O)=C(O)C(=O)/C=C(\O)c1ccccc1` . Its TGI was > 100 µM

====

GI50 overview
Tested on: A498 renal
METHOD: NCI tumour cell line growth inhibition, 48 h

Some solved entries appear below for comparison.
{"columns": ["COMPOUND", "READOUT", "REPORTED"],
 "data": [
  ["COc1cc2c3c(n(C)c(=O)c2cc1OC)-c1cc2c(cc1/C3=C\\CN)OCO2", "GI50", "3.07 µM"],
  ["COc1ccc(C(=O)/C=C/c2cc(-c3cc(OC)c(OC)c(OC)c3)n[nH]2)cc1OC", "GI50", "1.48 µM"],
  ["COc1cc(-c2cc(-c3cc4c([nH]c5ccccc54)c(-c4cc(OC)c(OC)c(OC)c4)n3)cc(-c3ccccc3)n2)cc(OC)c1OC", "GI50", "1.64 µM"],
  ["CNCC#Cc1c(F)ccc2c1/C(=C/c1[nH]ccc1OC)C(=O)N2", "GI50", "0.179 µM"],
  ["COc1cc(Cn2c(-c3ccccc3)c(Cl)c3c2-c2oncc2CC3)cc(OC)c1", "GI50", "2.96 µM"]
]}

Entry under test: O=C1OCC2=C1C(c1cccc(Br)c1)c1cc3c(cc1N2CCO)CCC3 (centres undefined) . Its GI50 was 0.0155 µM

Entry under test: `COc1ccc2[nH]cc(C3(c4c[nH]c5ccc(OC)cc45)C(=O)Nc4ccc(F)cc43)c2c1` . Its GI50 was 2.56 µM

Entry under test: CCCN1C(=O)N(CCC)C2C1NC(=S)N2/N=C/C=C/c1ccccc1OC (centres undefined) . Its GI50 was 0.203 µM

Entry under test: COc1cccc2c1C(=O)c1c(O)c3c(c(O)c1C2=O)C[C@](O)(C(=O)CO)C[C@H]3O[C@@H]1C[C@@H](NC(=O)CCCCCN(C)C2(c3ccc(F)cc3)CC3CCC2C3)[C@H](O)[C@@H](C)O1 (some centres undefined) . Its GI50 was 5.92 µM

FYI, the data here is from PubChem BioAssay (NCI).
